This section presents compounds with their documented pIC50 values.
# target of assay: Kras and SOS1 (biotin-tagged human Kras loaded with GDP, His-tagged human SOS1) (Homo sapiens, UniProt P01116, G12D)
# Construct: made in house; host or cells: E. coli (stated for Kras only)
# Sequence (P01116 1-188 isoform P01116-2 G12D): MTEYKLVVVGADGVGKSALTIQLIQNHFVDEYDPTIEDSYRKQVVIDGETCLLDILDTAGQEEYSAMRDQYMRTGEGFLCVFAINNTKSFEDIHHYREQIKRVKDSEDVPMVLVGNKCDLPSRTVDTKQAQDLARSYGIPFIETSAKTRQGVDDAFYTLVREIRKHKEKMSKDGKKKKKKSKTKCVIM
# assay name: Protein-protein interaction inhibition between Kras and SOS1 (KrasGl2D-SOS PPI) using AlphaScreen
# Assay type: binding
# particulars: AlphaScreen; biotin-tagged human Kras loaded with GDP, His-tagged human SOS1; read-out: KRAS G12D-SOS PPI IC50
pIC50: −log10 of the molar value. Starred links: 1 amine or outer side, 2 acyl side, 3 side chain; linkers in the order of their positions; H or OH if unused. Positions of bridges follow the written chain, without caps; N, C: chain ends. Non-standard residues stand in square brackets, D forms with d. Residues, ends and D or L forms follow the SMILES beside them. *: point of attachment. hPhe(3-Cl-4-CF3) = N[C@@H](CCc1ccc(C(F)(F)F)c(Cl)c1)C(=O)O; hPhe(3-F,4-CF3) = N[C@@H](CCc1ccc(C(F)(F)F)c(F)c1)C(=O)O; NMedβ3hAla = C[C@H](CC(=O)[*:2])N(C)[*:1]; NMeGly(cPent) = CN[C@H](C(=O)O)C1CCCC1; NMeCha = CN[C@@H](CC1CCCCC1)C(=O)O; NMeChg = CN[C@H](C(=O)O)C1CCCCC1; NMeD = CN[C@@H](CC(=O)O)C(=O)O; NMeL = CN[C@@H](CC(C)C)C(=O)O; Cba = N[C@@H](CC1CCC1)C(=O)O; NMeV = CN[C@H](C(=O)O)C(C)C; d(β3hA) = C[C@@H](N)CC(=O)O; Morpholide = C1CN(*)CCO1; NMeA = CN[C@@H](C)C(=O)O; NMeAib = CNC(C)(C)C(=O)O; Piperidide = C1CCN(*)CC1; dNMeA = CN[C@H](C)C(=O)O; Ac5c = NC1(C(=O)O)CCCC1; Aze = O=C(O)[C@@H]1CCN1; NEtG = CCNCC(=O)O; Sar = CNCC(=O)O
result type: pIC50

[
  {
    "compound": "CC[C@H](C)[C@@H]1NC(=O)[C@H](CC(C)C)N(C)C(=O)C[C@@H](C(=O)N2CCCCC2)N(C)C(=O)[C@H](C2CCCCC2)N(C)C(=O)C2(CCCC2)NC(=O)[C@@H]2CCCN2C(=O)[C@H](CCc2ccc(C(F)(F)F)c(Cl)c2)NC(=O)CN(C)C(=O)[C@H](CC2CCCCC2)N(C)C(=O)CN(C)C(=O)CN(CC)C1=O [Compound 1255] ([NMeL]I[NEtG][Sar][NMeCha][Sar][hPhe(3-Cl-4-CF3)]P[Ac5c][NMeChg][NMeD]-Piperidide; lactam N-11)",
    "test result": 8.85
  },
  {
    "compound": "CC[C@H](C)[C@@H]1NC(=O)[C@H](C)N(C)C(=O)C[C@@H](C)NC(=O)[C@H](C2CCCC2)N(C)C(=O)C2(CCCC2)NC(=O)[C@@H]2CCCN2C(=O)[C@H](CCc2ccc(C(F)(F)F)c(Cl)c2)NC(=O)[C@@H](C)N(C)C(=O)[C@H](C)N(C)C(=O)[C@@H]2CCN2C(=O)[C@H](C)N(C)C1=O [Compound 396] (cyclo([Ac5c][NMeGly(cPent)][d(β3hA)][NMeA]I[NMeA][Aze][NMeA][dNMeA][hPhe(3-Cl-4-CF3)]P))",
    "test result": 6.66
  },
  {
    "compound": "CC(C)C[C@H]1C(=O)N[C@@H](CC2CCC2)C(=O)N(C)CC(=O)N(C)CC(=O)N(C)[C@@H](CC2CCCCC2)C(=O)N(C)CC(=O)N[C@@H](CCc2ccc(C(F)(F)F)c(Cl)c2)C(=O)N2CCC[C@H]2C(=O)NC2(CCCC2)C(=O)N(C)[C@@H](C(C)C)C(=O)N(C)[C@H](C(=O)N2CCCCC2)CC(=O)N1C [Compound 451] ([NMeL][Cba][Sar][Sar][NMeCha][Sar][hPhe(3-Cl-4-CF3)]P[Ac5c][NMeV][NMeD]-Piperidide; lactam N-11)",
    "test result": 8.00
  },
  {
    "compound": "CC[C@H](C)[C@@H]1NC(=O)[C@H](CC(C)C)N(C)C(=O)C[C@@H](C(=O)N2CCOCC2)N(C)C(=O)[C@H](C2CCCCC2)N(C)C(=O)C2(CCCC2)NC(=O)[C@@H]2CCCN2C(=O)[C@H](CCc2ccc(C(F)(F)F)c(F)c2)NC(=O)CN(C)C(=O)[C@H](CC2CCCCC2)N(C)C(=O)CN(C)C(=O)CN(C)C1=O [Compound 1965] ([NMeL]I[Sar][Sar][NMeCha][Sar][hPhe(3-F,4-CF3)]P[Ac5c][NMeChg][NMeD]-Morpholide; lactam N-11)",
    "test result": 9.26
  },
  {
    "compound": "CC[C@H](C)[C@@H]1NC(=O)[C@H](C)N(C)C(=O)C[C@@H](C)N(C)C(=O)[C@H](CC(C)C)NC(=O)C(C)(C)N(C)C(=O)[C@H](CC(C)C)NC(=O)[C@H](CCc2ccc(C(F)(F)F)c(Cl)c2)NC(=O)[C@@H](C)N(C)C(=O)[C@H](CC2CCCCC2)N(C)C(=O)[C@@H]2CCN2C(=O)CN(C)C1=O [Compound 1378] (cyclo([Aze][NMeCha][dNMeA][hPhe(3-Cl-4-CF3)]L[NMeAib]L[NMedβ3hAla][NMeA]I[Sar]))",
    "test result": 6.42
  }
]
